Test: Inhibition of calf brain tubulin polymerization after 20 mins
Set-up: species or system Bos taurus
pIC50: −log10 of the molar value.
READOUT_LABEL: pIC50

[[record]]
compound = "COc1ccc(/C=C\\c2cc(OC)c(OC)c(OC)c2)cc1O"
value_reported = 5.52

[[record]]
compound = "CCn1ccc2cc(/C(=N\\O)c3cc(OC)c(OC)c(OC)c3)ccc21"
value_reported = 5.23

[[record]]
compound = "COc1cc(/C(=N/O)c2ccc3c(ccn3C)c2)cc(OC)c1OC"
value_reported = 5.74

[[record]]
compound = "COc1cc(C(=O)c2ccc3c(ccn3C)c2)cc(OC)c1OC"
value_reported = 5.10


[P] COc1ccc(C(=O)c2cc(OC)c(OC)c(OC)c2)cc1O
[Q] CCn1ccc2cc(C(=O)c3cc(OC)c(OC)c(OC)c3)ccc21
[R] COc1cc(C(O)c2ccc3c(ccn3C)c2)cc(OC)c1OC (configuration not stated)
Write the entries in order, lowest recorded pIC50 first. Give me the labels in the order the question wants.
R, Q, P
(R: 4.74, Q: 5.24, P: 5.60)

---

Species: Bos taurus
Test: Inhibition of calf brain tubulin polymerization at 20 uM after 20 mins
READOUT_LABEL: inhibition (%)

[[record]]
compound = "COc1ccc(C(=O)c2cc(OC)c(OC)c(OC)c2)cc1O"
endpoint_unit = "%"
value_reported = 97


[A] CCn1ccc2cc(C(=O)c3cc(OC)c(OC)c(OC)c3)ccc21
[B] COc1cc(/C(=N\OC(C)=O)c2ccc3c(ccn3C)c2)cc(OC)c1OC
Hi there! Just curious which has the higher inhibition between A and B . When you have decided, please share the label of that item.
A
(A: 95%, B: 41%)

[I] COc1cc(/C(=N/OC(=O)OC(C)(C)C)c2ccc3c(ccn3C)c2)cc(OC)c1OC
[II] COc1cc(/C(=N\O)c2ccc3c(ccn3C)c2)cc(OC)c1OC
Which record shows the lower inhibition: the first, I , or the second, II ? Please respond with the label that marks your chosen entry.
I
(I: 10%, II: 23%)

[P] CCn1ccc2cc(/C(=N\O)c3cc(OC)c(OC)c(OC)c3)ccc21
[Q] CCn1ccc2cc(C(O)c3cc(OC)c(OC)c(OC)c3)ccc21 (stereo not given)
[R] COc1cc(/C(=N\OC(=O)OC(C)(C)C)c2ccc3c(ccn3C)c2)cc(OC)c1OC
Sequence the entries by inhibition, beginning with the highest number. API: response body holds the labels in the requested order.
P, Q, R
(P: 87%, Q: 42%, R: 17%)

[P] CCn1ccc2cc(/C(=N/OC(C)=O)c3cc(OC)c(OC)c(OC)c3)ccc21
[Q] COc1cc(C(O)c2ccc3c(ccn3C)c2)cc(OC)c1OC (stereo not given)
Select one. Lower inhibition: P or Q Please identify the chosen entry by its label.
P

---

Tested on: HeLa
Experiment: Cytotoxicity against human HeLa cells after 72 hrs by XTT method
Assay type: functional, cell-based
READOUT_LABEL: IC50

Example cases with answers are listed next.
[[record]]
compound = "CCn1ccc2cc(C(=O)c3cc(OC)c(OC)c(OC)c3)ccc21"
readout_label = "IC50"
value_reported = "0.016 µM"

[[record]]
compound = "CCn1ccc2cc(/C(=N\\OC(C)=O)c3cc(OC)c(OC)c(OC)c3)ccc21"
readout_label = "IC50"
value_reported = "> 1 µM"

[[record]]
compound = "CN/N=C(/c1cc(OC)c(OC)c(OC)c1)c1ccc2c(ccn2C)c1"
readout_label = "IC50"
value_reported = "> 1 µM"


The reported value for CCn1ccc2cc(/C(=N\O)c3cc(OC)c(OC)c(OC)c3)ccc21 in terms of IC50 is > 1 µM

// IC50 value for COc1cc(/C(=N\OC(=O)OC(C)(C)C)c2ccc3c(ccn3C)c2)cc(OC)c1OC : > 1 µM
